Test system: SF-268 CNS
Assay: NCI tumour cell line growth inhibition, 48 h
Record form. Attribute: TGI. Fill in for each entry.

Exercise: # input compound: Fc1ccc(/C=C2\COCC3=C2NC(=S)NC3c2ccc(F)cc2)cc1 (centres undefined) ; wanted: its TGI
Solution: 33.9 µM

Exercise: # input compound: "CCCCCOC(=O)c1c(C)[nH]c(/C=C2\N=C(c3ccc[nH]3)C=C2OC)c1C" ; wanted: its TGI
Solution: 1.87 µM

Exercise: # input compound: "CC1=C[C@H](C[C@]2(C)c3c(c4c(C)cccc4oc3=O)O[C@@H]2C)OC1=O" ; wanted: its TGI
Solution: 63.4 µM

Exercise: # input compound: CCOP(=O)(OCC)C(C(=O)OC)C(=O)C(=O)Nc1cccc([N+](=O)[O-])c1 (centres undefined) ; wanted: its TGI
Solution: > 100 µM

Exercise: # input compound: "COc1ccc(/C=C2\C(=O)N(C(=O)c3ccc(NC(C)=O)cc3)N=C2C)cc1OC" ; wanted: its TGI
Solution: > 100 µM

Exercise: # input compound: CCCN(CCC)C1CC(n2cc(C)c(=O)[nH]c2=O)OC1CO (centres undefined) ; wanted: its TGI
Solution: > 100 µM

Exercise: # input compound: "CCn1c(-c2nonc2N)nc2cnc(Oc3cccc(NC(=O)c4ccc(OCCN5CCOCC5)cc4)c3)cc21" ; wanted: its TGI
Solution: > 25 µM

Exercise: # input compound: "CSC(=Nc1ccc([N+](=O)[O-])cc1C#N)NC(=O)c1ccccc1" ; wanted: its TGI
Solution: > 100 µM

Exercise: # input compound: "C=C(C)[C@@H]1CC[C@]2(C(=O)OC)CC[C@]3(C)[C@H](CC[C@@H]4[C@@](C)(CCc5nn[nH]n5)[C@H](C(=C)C)CC[C@]43C)[C@@H]12" ; wanted: its TGI
Solution: 34.9 µM

====

System: RXF 393 renal
Test: NCI tumour cell line growth inhibition, 48 h
property-name: TGI (µM)
Entry rule: numbers only, all in µM.

Exercise: # input compound: "COc1ccc(OC)c([N+](=O)[O-])c1-c1nc2sc(Cl)cn2c1/C=N/N=C(N)N" ; wanted: its TGI
Solution: 48.3

Exercise: # input compound: O=[N+]([O-])c1ccc(Cl)c(C2CC(c3cccc4ccccc34)=Nc3ccccc3S2=O)c1 (stereo not drawn) ; wanted: its TGI
Solution: 21.1

====

System: U251 CNS
Test: NCI tumour cell line growth inhibition, 48 h
property-name: TGI

Exercise: # input molecule: "O=C1O/C(=C(\Br)c2ccc([N+](=O)[O-])cc2)c2ccccc21" ; wanted: its TGI
Solution: > 100 µM

Exercise: # input molecule: "C[C@]12CC[C@H]3[C@@H](CCC4=CC(=O)CC[C@@]43C)[C@]1(O)CC[C@]2(O)C(=O)CO" ; wanted: its TGI
Solution: > 100 µM

Exercise: # input molecule: CC(C)(C)OC(=O)C1C(=O)NC(=O)CC1C(OCc1ccccc1)C(OCc1ccccc1)C(COCc1ccccc1)OCc1ccccc1 (stereo not given) ; wanted: its TGI
Solution: > 100 µM

Exercise: # input molecule: "COP(=O)(OC)[C@@](O)(c1ccccc1)[C@@H](O)[C@H](O)c1ccccc1" ; wanted: its TGI
Solution: > 100 µM

Exercise: # input molecule: "COc1cc(O)c2c(=O)c3cccc(C)c3[nH]c2c1" ; wanted: its TGI
Solution: > 10 µM

Reference source: PubChem BioAssay (NCI)
